This section presents compounds with their documented Enzyme activity pIC50 values.
- tested_on: histone deacetylase (HeLa nuclear extracts)
- procedure_details: In vitro assay for inhibition of histone deacetylase (HDAC Fluorescent Activity Assay, Fluor de Lys)
- Type: biochemical
- test_context: HeLa nuclear extracts 60 μg/ml, 75 μM Fluor de Lys substrate, example C.1
- Experimental: The in vitro assay for inhibition of histone deacetylase (see example C.1) measures the inhibition of HDAC enzymatic activity obtained with the compounds of formula (I). The HDAC Fluorescent Activity Assay/Drug Discovery Kit of Biomol (cat.No: AK-500-0001) was used. […] HeLa nuclear extracts (supplier: Biomol) were incubated at 60 μg/ml with 75 μM of substrate. […] The fluorophore was excited with 355 nm light and the emitted light (450 nm) was be detected on a fluorometric plate reader. […]
endpoint_label: Enzyme activity pIC50

>>> df
                                    compound         endpoint_label  endpoint_result
 0  O=C(NO)c1cnc(N2CCC(CN3CCN(c4cccc5ccccc45)C3=O)CC2)nc1  Enzyme activity pIC50              7.1
 1  CC1C(=O)N(c2ccc(-c3ccccc3)cc2)C(=O)N1CC1CCN(c2ncc(C(=O)NO)cn2)CC1 (stereo not shown)  Enzyme activity pIC50              7.2
 2  COc1cc(-n2ccn(CC3CN(c4ncc(C(=O)NO)cn4)CCO3)c2=O)cc(OC)c1OC (stereo not shown)  Enzyme activity pIC50              7.2
 3  COc1cc(-n2ccn(CC3CCN(c4ncc(C(=O)NO)cn4)CC3)c2=O)cc(OC)c1OC  Enzyme activity pIC50              7.4
 4  O=C(NO)c1cnc(N2CCC(Cn3ccn(-c4ccc(F)cc4)c3=O)CC2)nc1  Enzyme activity pIC50              7.6
 5  Cc1cccc(-n2ccn(CC3CN(c4ncc(C(=O)NO)cn4)CCO3)c2=O)c1 (stereo not shown)  Enzyme activity pIC50              6.8
 6  O=C(NO)c1cnc(N2CCOC(Cn3ccn(-c4ccc(F)cc4)c3=O)C2)nc1 (stereo not shown)  Enzyme activity pIC50              7.3
 7  Cc1[nH]c2ccccc2c1CCn1ccn(CC2CCN(c3ncc(C(=O)NO)cn3)CC2)c1=O  Enzyme activity pIC50              7.9
 8  COc1ccc(-n2ccn(CC3CN(c4ncc(C(=O)NO)cn4)CCO3)c2=O)cc1OC (stereo not shown)  Enzyme activity pIC50              7.3
 9  O=C(NO)c1cnc(N2CCC(Cn3ccn(-c4cccc(F)c4)c3=O)CC2)nc1  Enzyme activity pIC50              7.5
10  O=C(NO)c1cnc(N2CCC(CN3CCN(c4ccc(-c5ccccc5)cc4)C3=O)CC2)cn1  Enzyme activity pIC50              7.3
11  O=C(NO)c1cnc(N2CCC(Cn3ccn(-c4ccc(-c5ccccc5)cc4)c3=O)CC2)nc1  Enzyme activity pIC50              7.8
12  Cc1ccc(-n2ccn(CC3CN(c4ncc(C(=O)NO)cn4)CCO3)c2=O)cc1 (stereo not shown)  Enzyme activity pIC50              7.2
13  O=C(NO)c1cnc(N2CCOC(Cn3ccn(-c4ccccc4)c3=O)C2)nc1 (stereo not shown)  Enzyme activity pIC50              7.5
14  N#Cc1ccc(N2C(=O)C(c3ccccc3)N(CC3CCN(c4ncc(C(=O)NO)cn4)CC3)C2=O)cc1 (stereo not shown)  Enzyme activity pIC50              7.1
15  COc1cccc(-n2ccn(CC3CCN(c4ncc(C(=O)NO)cn4)CC3)c2=O)c1  Enzyme activity pIC50              7.7

###

This section presents compounds with their documented melting point values.
endpoint_label: melting point (°C)

In [3]: df
Out[3]:
                                   compound  endpoint_result
0  N#Cc1ccc(N2C(=O)C(c3ccccc3)N(CC3CCN(c4ncc(C(=O)NO)cn4)CC3)C2=O)cc1 (stereo not shown) [Compound 5]              187
1  Cc1[nH]c2ccccc2c1CCn1ccn(CC2CCN(c3ncc(C(=O)NO)cn3)CC2)c1=O [Compound 35]              246
2  CC1C(=O)N(c2ccc(-c3ccccc3)cc2)C(=O)N1CC1CCN(c2ncc(C(=O)NO)cn2)CC1 (stereo not shown) [Compound 6]              169
3  CC1C(=O)N(c2ccc(C#N)cc2)C(=O)N1CC1CCN(c2ncc(C(=O)NO)cn2)CC1 (stereo not shown) [Compound 36]              135

###

- tested_on: histone deacetylase (HeLa nuclear extracts)
- procedure_details: In vitro assay for inhibition of histone deacetylase (HDAC Fluorescent Activity Assay, Fluor de Lys)
- Assay type: biochemical
- test_context: HeLa nuclear extracts 60 μg/ml, 75 μM Fluor de Lys substrate, example C.1
endpoint_label: Enzyme activity pIC50

                            compound_string  endpoint_result
0  COc1ccc(-n2ccn(CC3CCN(c4ncc(C(=O)NO)cn4)CC3)c2=O)cc1OC              7.5
1  O=C(NO)c1cnc(N2CCC(CN3CCN(c4ccc(Oc5ccccc5)cc4)C3=O)CC2)nc1              7.2
2  O=C(NO)c1cnc(N2CCC(Cn3ccn(-c4ccccc4)c3=O)CC2)nc1              6.6
3  Cc1ccc(-n2ccn(CC3CCN(c4ncc(C(=O)NO)cn4)CC3)c2=O)cc1              7.7
4  COc1cc(OC)cc(-n2ccn(CC3CCN(c4ncc(C(=O)NO)cn4)CC3)c2=O)c1              7.4

###

- tested_on: histone deacetylase (HeLa nuclear extracts)
- procedure_details: In vitro assay for inhibition of histone deacetylase (HDAC Fluorescent Activity Assay, Fluor de Lys)
- Format: biochemical
- test_context: HeLa nuclear extracts 60 μg/ml, 75 μM Fluor de Lys substrate, example C.1
- Experimental: The in vitro assay for inhibition of histone deacetylase (see example C.1) measures the inhibition of HDAC enzymatic activity obtained with the compounds of formula (I). The HDAC Fluorescent Activity Assay/Drug Discovery Kit of Biomol (cat.No: AK-500-0001) was used. […] HeLa nuclear extracts (supplier: Biomol) were incubated at 60 μg/ml with 75 μM of substrate. […] The fluorophore was excited with 355 nm light and the emitted light (450 nm) was be detected on a fluorometric plate reader. […]
endpoint_label: Enzyme activity pIC50

>>> df
                                   compound                                 tested_on  endpoint_result
0  COc1ccc(-n2ccn(CC3CN(c4ncc(C(=O)NO)cn4)CCO3)c2=O)cc1 (stereo not shown) [Compound 18]  histone deacetylase (HeLa nuclear extracts)              7.2
1  O=C(NO)c1cnc(N2CCC(Cn3ccn(-c4ccc5c(c4)OCCOCCOCCOCCO5)c3=O)CC2)nc1 [Compound 24]  histone deacetylase (HeLa nuclear extracts)              7.4
2  O=C(NO)c1cnc(N2CCOC(Cn3ccn(-c4cccc(F)c4)c3=O)C2)nc1 (stereo not shown) [Compound 21]  histone deacetylase (HeLa nuclear extracts)              7.4
3  O=C(NO)c1cnc(N2CCOC(Cn3ccn(-c4cccc(C(F)(F)F)c4)c3=O)C2)nc1 (stereo not shown) [Compound 15]  histone deacetylase (HeLa nuclear extracts)              7.3
